Measured values drawn from paper PMC6797481 for this set.

Each item that follows carries a reported IC50.
Target: GlyT2 V432A mutant (Homo sapiens, UniProt Q9Y345, V432A)
Construct: expressed in transfected cells; host or cells: Xenopus laevis oocytes (cRNA injection)
Sequence (Q9Y345 whole entry V432A): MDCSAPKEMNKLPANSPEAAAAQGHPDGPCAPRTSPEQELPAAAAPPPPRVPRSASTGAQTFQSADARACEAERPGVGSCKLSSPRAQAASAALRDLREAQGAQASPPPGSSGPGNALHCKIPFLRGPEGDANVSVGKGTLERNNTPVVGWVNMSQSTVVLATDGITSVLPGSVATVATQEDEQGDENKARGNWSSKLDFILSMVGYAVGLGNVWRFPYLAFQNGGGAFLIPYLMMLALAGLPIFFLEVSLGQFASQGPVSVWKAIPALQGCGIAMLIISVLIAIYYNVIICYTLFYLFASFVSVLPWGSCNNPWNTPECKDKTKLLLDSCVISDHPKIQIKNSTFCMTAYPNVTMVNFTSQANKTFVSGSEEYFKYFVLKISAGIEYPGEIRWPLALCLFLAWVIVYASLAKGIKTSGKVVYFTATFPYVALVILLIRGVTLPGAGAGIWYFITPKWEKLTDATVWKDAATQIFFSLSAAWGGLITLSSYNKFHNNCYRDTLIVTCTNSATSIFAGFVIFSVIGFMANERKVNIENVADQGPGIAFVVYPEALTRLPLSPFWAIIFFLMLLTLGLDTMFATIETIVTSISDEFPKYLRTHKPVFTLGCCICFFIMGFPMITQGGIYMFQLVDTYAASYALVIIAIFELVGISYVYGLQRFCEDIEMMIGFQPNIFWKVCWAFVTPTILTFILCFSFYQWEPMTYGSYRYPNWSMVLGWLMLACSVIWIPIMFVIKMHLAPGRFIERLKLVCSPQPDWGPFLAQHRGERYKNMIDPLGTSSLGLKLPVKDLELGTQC
Assay: Glycine transport currents, two electrode voltage clamp, oocytes expressing GlyT2 V432A
Format: cell-based
Conditions: GlyT2 V432A; greater than maximum concentration applied (footnote a)

molecule CCCCCCCC/C=C\CCCCCCCC(=O)NCC(=O)O [N-oleoyl Glycine, reference compound] , IC50 observed: > 10 µM

molecule CCC=CCCCCCCCCCCCC(=O)NCC(=O)O [C16 ω3 Glycine] , IC50 observed: > 10 µM

molecule CCCCCC/C=C\CCCCCCCC(=O)NCC(=O)O [C16 ω7 Glycine] , IC50 observed: > 10 µM

molecule CCCCCCCC/C=C\CCCCCCCC(=O)O[C@H](CC(=O)[O-])C[N+](C)(C)C [oleoyl L-Carnitine, reference compound] , IC50 observed: > 3 µM

molecule CCCCC/C=C\C/C=C\C/C=C\C/C=C\CCCC(=O)NCC(=O)O [N-arachidonyl Glycine, reference compound] , IC50 observed: > 10 µM
